system: HSC-3; test: Cytotoxicity against human HSC3 cells after 48 hrs by MTT assay; assay type: functional; details: HSC-3, 48 h
Cut-off 60 µM on CC50: below means Condition met, at or above means Condition not met.

# molecule, target-or-system, cat
measured = [
    ("O=C(O)c1cc(O)c(O)c(Oc2c(C(=O)O[C@H]3[C@H](OC(=O)c4cc(O)c(O)c(O)c4)O[C@@H]4COC(=O)c5cc(O)c(O)c(O)c5-c5c(cc(O)c(O)c5O)C(=O)O[C@H]4[C@@H]3OC(=O)c3cc(O)c(O)c(O)c3O)cc(O)c(O)c2O)c1 [REMURIN A]", "HSC-3", "Condition met"),
    ("O=C(O[C@@H]1O[C@@H]2COC(=O)c3cc(O)c(O)c(O)c3-c3c(cc(O)c(O)c3O)C(=O)O[C@H]2[C@H](OC(=O)c2cc(O)c(O)c(O)c2)[C@H]1OC(=O)c1cc(O)c(O)c(O)c1Oc1cc2c(c(O)c1O)Oc1cc(cc(O)c1O)C(=O)O[C@@H]1O[C@@H]3COC(=O)c4cc(O)c(O)c(O)c4-c4c(cc(O)c(O)c4O)C(=O)O[C@H]3[C@H](OC(=O)c3cc(O)c(O)c(O)c3)[C@H]1OC2=O)c1cc(O)c(O)c(O)c1 [HIRTELLIN B]", "HSC-3", "Condition not met"),
    ("O=C(O[C@@H]1O[C@@H]2COC(=O)c3cc(O)c(O)c(O)c3-c3c(cc(O)c(O)c3O)C(=O)O[C@H]2[C@H](OC(=O)c2cc(O)c(O)c(O)c2)[C@H]1OC(=O)c1cc(O)c(O)c(O)c1Oc1cc2c(c(O)c1O)Oc1cc(cc(O)c1O)C(=O)O[C@@H]1O[C@H](CO)[C@@H](O)[C@H](OC(=O)c3cc(O)c(O)c(O)c3)[C@H]1OC2=O)c1cc(O)c(O)c(O)c1 [NILOTININ D8]", "HSC-3", "Condition met"),
    ("O=C(O)c1cc(O)c(O)c(Oc2c(C(=O)O[C@@H]3[C@@H](OC(=O)c4cc(O)c(O)c(O)c4O)[C@@H]4OC(=O)c5cc(O)c(O)c(O)c5-c5c(cc(O)c(O)c5O)C(=O)OC[C@H]4O[C@H]3O)cc(O)c(O)c2O)c1 [REMURIN B]", "HSC-3", "Condition not met"),
    ("O=C1O[C@@H]2O[C@@H]3COC(=O)c4cc(O)c(O)c(O)c4-c4c(cc(O)c(O)c4O)C(=O)O[C@H]3[C@H](OC(=O)c3cc(O)c(O)c(O)c3)[C@H]2OC(=O)c2cc(Oc3c(C(=O)O[C@@H]4[C@@H](OC(=O)c5cc(O)c(O)c(O)c5)[C@@H]5OC(=O)c6cc(O)c(O)c(O)c6-c6c(cc(O)c(O)c6O)C(=O)OC[C@H]5O[C@H]4O)cc(O)c(O)c3O)c(O)c(O)c2Oc2cc1cc(O)c2O [TAMARIXININ A]", "HSC-3", "Condition met"),
    ("O=C1O[C@@H]2O[C@@H]3COC(=O)c4cc(O)c(O)c(O)c4-c4c(cc(O)c(O)c4O)C(=O)O[C@H]3[C@H](OC(=O)c3cc(O)c(O)c(O)c3)[C@H]2OC(=O)c2cc(Oc3c(C(=O)O)cc(O)c(O)c3O)c(O)c(O)c2Oc2cc1cc(O)c2O [NILOTININ M4]", "HSC-3", "Condition met"),
]
